# test-target: EhiCA (Entamoeba histolytica, UniProt C4LXK3)
# Construct: gene EHI_073380; His-tag cleaved with thrombin; 21 kDa (21/25 kDa doublet); one Zn per chain; Zn ligands Cys50, His103, Cys106, dyad Asp52-Arg54; dimer and trimer seen on SDS-PAGE
# Sequence (C4LXK3 1-188): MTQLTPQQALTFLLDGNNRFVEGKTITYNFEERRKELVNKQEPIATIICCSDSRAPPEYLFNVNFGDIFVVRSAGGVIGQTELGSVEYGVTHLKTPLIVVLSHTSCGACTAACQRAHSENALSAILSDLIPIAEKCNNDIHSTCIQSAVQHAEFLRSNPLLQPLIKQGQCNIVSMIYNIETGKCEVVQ
# test-method-notes: biochemical
# condition-description: CO2 hydration, TRIS pH 8.3, 20 °C (methods: 25 °C), 0.1 M NaClO4, 15 min pre-incubation; as sodium salt; read-out: KI [mM] ^#

compound | Ki
F[P-](F)(F)(F)(F)F [PF6^−] | > 100 mM
